- testedSystem: T1, human CD70, recombinant, N-terminally biotinylated (residues 39-193) (human, UniProt P32970 39-193, N-terminal biotin)
- T1 construct: range 39-193; the same entry is used there; also called biotinylated human CD70; CD70 biotin
- T1 sequence (looked up): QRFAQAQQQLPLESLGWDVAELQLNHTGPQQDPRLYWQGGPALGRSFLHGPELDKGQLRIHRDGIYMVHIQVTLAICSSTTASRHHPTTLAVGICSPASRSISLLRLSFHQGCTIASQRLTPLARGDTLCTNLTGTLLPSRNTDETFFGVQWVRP
- procedureText: SPR
Each item that follows carries a reported Kd.
The answer is to be given in nM; state only the numeric part.

Recorded Kd, per entry:
binder: 49-TC4-XVI-F01 (scFv, His-tagged) scFv: QVQLVESGGGVVQPGRSLRLSCAASGFTFSSYAMHWVRQAPGKGLEWVAVISYDGSNKYYADSVKGRFTISRDNSKNTLYLQMNSLRAEDTAVYYCARDSTQDYGMDVWGQGTMVTVSSGGSGGSGGSGGSSSELTQDPAVSVALGQTVRITCQGDSLRNYYASWYQQKPGQAPVLVFYGKNNRPSGIPDRFSGSSSGNTASLTITGAQAEDEADYYCNSRDSSGNHLVVFGGGTKLTVL
experimentalValue: 1060
--
binder: 14-TC4-III-A04 (scFv, His-tagged) scFv: QVQLVQSGAEVKKPGASVKVSCKASGYTFTGYYMNWVRQAPGQGLEWMAWINPNTGDTNYAQKFQGRVTMTRDTSINTAYIELSRLTSDDTAVYYCARVGDYYDRSGYYRHDAFDIWGQGTMVTVSSGGSGGSGGSGGSSSELTQDPAVSVALGQTVRITCQGDSLRSYYASWYQQKPGQAPVLVIYGKNNRPSGIPDRFSGSSSGNTASLTITGAQAEDEADYYCQAWDSSTGVFGGGTKVTVL
experimentalValue: 13.7

Please turn your attention to the following entry.
Query: Using the record for 14-TC6-I-F03 (scFv, His-tagged) scFv: QVQLVQSGAEVKKPGASVKVSCKASGYTFTGYYMNWVRQAPGQGLEWMAWINPNTGDTNYAQKFQGRVTMTRDTSINTAYIELSRLTSDDTAVYYCARVGDYYDRSGYYRHDAFDIWGQGTMVTVSSGGSGGSGGSGGSSSELTQDPAVSVALGQTVRITCQGDSLRSYYASWYQQKPGQAPVLVIYGKNNRPSGIPDRFSGSNSGNTATLTISGTQAMDEADYYCQAWDSSTVFGGGTKVTVL , report its Kd.
Result: 289

# credit: patent US20240252641A1
